log10(MIC) by entry:
Test system: pathogenic bacteria
TEST_METHOD_NOTES: MIC by microdilution broth method (NCCLS M7-A4), in vitro antibacterial activity
Type: cell-based
CONDITION_INFO: Staphylococcus aureus, Organism A: Staphylococcus aureus OC4172
Where a name gives a salt, the structure may show the parent alone.
RECORDED_ENDPOINT: log10(MIC) (log10 of the value in µg/mL)

{"MOLECULE": "O=C(O)c1cn(C2CC2)c2nc(N3CCC(=C(Cl)CN4CCNCC4)CC3)c(F)cc2c1=O [Compound 292, Trifluoroacetic Acid Salt]", "TESTED_SYSTEM": "pathogenic bacteria", "ASSAY_RESULT": 0.00}
{"MOLECULE": "NC/C(F)=C1/CCCN(c2nc3c(cc2F)c(=O)c(C(=O)O)cn3C2CC2)C1 [Compound 253, trifluoroacetic acid salt]", "TESTED_SYSTEM": "pathogenic bacteria", "ASSAY_RESULT": -1.22}
{"MOLECULE": "CN(C)CC(Cl)=C1CCN(c2cc3c(cc2F)c(=O)c(C(=O)O)cn3C2CC2)CC1 [Compound 298, Trifluoroacetic Acid Salt]", "TESTED_SYSTEM": "pathogenic bacteria", "ASSAY_RESULT": -0.60}
{"MOLECULE": "CNCC(Cl)=C1CN(c2cc3c(cc2F)c(=O)c(C(=O)O)cn3C2CC2)C1 [Compound 431, trifluoroacetic acid salt]", "TESTED_SYSTEM": "pathogenic bacteria", "ASSAY_RESULT": -1.22}
{"MOLECULE": "Nc1nc(-n2cc(C(=O)O)c(=O)c3cc(F)c(N4CCC/C(=C(/F)CO)C4)c(Cl)c32)c(F)cc1F [Compound 359, Trifluoroacetate]", "TESTED_SYSTEM": "pathogenic bacteria", "ASSAY_RESULT": -0.92}
{"MOLECULE": "NC/C(F)=C1/CCCN(c2c(F)cc3c(=O)c(C(=O)O)cn(-c4nc(N)c(F)cc4F)c3c2Cl)C1 [Compound 358, Trifluoroacetate]", "TESTED_SYSTEM": "pathogenic bacteria", "ASSAY_RESULT": -0.92}
{"MOLECULE": "CNCC(Cl)=C1CCN(c2c(F)cc3c(=O)c(C(=O)O)cn(C4CC4)c3c2OC)CC1 [Compound 72, Trifluoroacetic Acid Salt]", "TESTED_SYSTEM": "pathogenic bacteria", "ASSAY_RESULT": -1.52}
{"MOLECULE": "NC/C(F)=C1/CCCN(c2cc3c(cc2F)c(=O)c(C(=O)O)cn3C2CC2)C1 [Compound 256, Trifluoroacetic Acid Salt]", "TESTED_SYSTEM": "pathogenic bacteria", "ASSAY_RESULT": -1.52}

###

System: pathogenic bacteria
TEST_METHOD_NOTES: MIC by microdilution broth method (NCCLS M7-A4), in vitro antibacterial activity
Format: cell-based
CONDITION_INFO: Streptococcus pneumoniae, Organism B: fluoroquinolone-resistant clinical isolate of Streptococcus pneumoniae (QRDR amino acid substitutions)
Structures can show the parent of a compound that is named as a salt.

{"MOLECULE": "C/C(CN)=C1/CCCN(c2cc3c(cc2F)c(=O)c(C(=O)O)cn3C2CC2)C1", "TESTED_SYSTEM": "pathogenic bacteria", "OPERATOR_SYMBOL": ">", "MIC (µg/mL)": 16}
{"MOLECULE": "Cc1c(F)c(N2CCC/C(=C(\\Cl)CN)C2)cc2c1c(=O)c(C(=O)O)cn2C1CC1", "TESTED_SYSTEM": "pathogenic bacteria", "OPERATOR_SYMBOL": "≤", "MIC (µg/mL)": 0.5}
{"MOLECULE": "COc1c(N2CCC/C(=C/CN)C2)c(F)cc2c(=O)c(C(=O)O)cn(C3CC3)c12", "TESTED_SYSTEM": "pathogenic bacteria", "OPERATOR_SYMBOL": "=", "MIC (µg/mL)": 0.5}
{"MOLECULE": "CN(CC(F)=C1CCN(c2c(F)cc3c(=O)c(C(=O)O)cn(C4CC4)c3c2OC(F)F)CC1)Cc1ccccc1", "TESTED_SYSTEM": "pathogenic bacteria", "OPERATOR_SYMBOL": "=", "MIC (µg/mL)": 8}
{"MOLECULE": "C/C(CN)=C1/CCCN(c2nc3c(cc2F)c(=O)c(C(=O)O)cn3C2CC2)C1", "TESTED_SYSTEM": "pathogenic bacteria", "OPERATOR_SYMBOL": "=", "MIC (µg/mL)": 16}
{"MOLECULE": "Cc1c(F)c(N2CCC/C(=C(/F)CN)C2)cc2c1c(=O)c(C(=O)O)cn2C1CC1", "TESTED_SYSTEM": "pathogenic bacteria", "OPERATOR_SYMBOL": "=", "MIC (µg/mL)": 4}
{"MOLECULE": "C[C@H]1COc2c(N3CCC/C(=C(\\Cl)CN)CC3)c(F)cc3c(=O)c(C(=O)O)cn1c23", "TESTED_SYSTEM": "pathogenic bacteria", "OPERATOR_SYMBOL": "=", "MIC (µg/mL)": 0.5}
{"MOLECULE": "NCC(Cl)=C1CCN(c2c(F)cc3c(=O)c(C(=O)O)cn(C4CC4)c3c2OCF)CC1", "TESTED_SYSTEM": "pathogenic bacteria", "OPERATOR_SYMBOL": ">", "MIC (µg/mL)": 16}
{"MOLECULE": "Cc1c(F)c(N2CC(=C(Cl)CO)C2)cc2c1c(=O)c(C(=O)O)cn2C1CC1", "TESTED_SYSTEM": "pathogenic bacteria", "OPERATOR_SYMBOL": ">", "MIC (µg/mL)": 16}
{"MOLECULE": "NC/C(Cl)=C1/CCCN(c2c(F)cc3c(=O)c(C(=O)O)cn(-c4nc(N)c(F)cc4F)c3c2Cl)C1", "TESTED_SYSTEM": "pathogenic bacteria", "OPERATOR_SYMBOL": "=", "MIC (µg/mL)": 16}
{"MOLECULE": "CN(C)CC(Cl)=C1CCN(c2cc3c(cc2F)c(=O)c(C(=O)O)cn3C2CC2)CC1 [Compound 298, Trifluoroacetic Acid Salt]", "TESTED_SYSTEM": "pathogenic bacteria", "OPERATOR_SYMBOL": "=", "MIC (µg/mL)": 16}
{"MOLECULE": "NC/C(F)=C1/CCCN(c2nc3c(cc2F)c(=O)c(C(=O)O)cn3C2CC2)C1 [Compound 253, trifluoroacetic acid salt]", "TESTED_SYSTEM": "pathogenic bacteria", "OPERATOR_SYMBOL": "=", "MIC (µg/mL)": 4}
{"MOLECULE": "COc1c(N2CCC/C(=C/CN)C2)c(F)cc2c(=O)c(C(=O)O)cn([C@@H]3C[C@@H]3F)c12", "TESTED_SYSTEM": "pathogenic bacteria", "OPERATOR_SYMBOL": "=", "MIC (µg/mL)": 1}
{"MOLECULE": "COc1c(N2CCOC/C(=C(\\F)CN)C2)c(F)cc2c(=O)c(C(=O)O)cn(C3CC3)c12", "TESTED_SYSTEM": "pathogenic bacteria", "OPERATOR_SYMBOL": "=", "MIC (µg/mL)": 0.12}
{"MOLECULE": "COc1c(N2CCC/C(=C(/F)CN)C2)c(F)cc2c(=O)c(C(=O)O)cn(C3CC3)c12", "TESTED_SYSTEM": "pathogenic bacteria", "OPERATOR_SYMBOL": "=", "MIC (µg/mL)": 2}
{"MOLECULE": "COc1c(N2CCC(=C(Cl)CN)CC2)c(F)cc2c(=O)c(C(=O)O)cn(C3CC3)c12", "TESTED_SYSTEM": "pathogenic bacteria", "OPERATOR_SYMBOL": "=", "MIC (µg/mL)": 0.06}
{"MOLECULE": "C=CC(Cl)=C1CCN(c2nc3c(cc2F)c(=O)c(C(=O)O)cn3C2CC2)CC1", "TESTED_SYSTEM": "pathogenic bacteria", "OPERATOR_SYMBOL": "=", "MIC (µg/mL)": 1}
{"MOLECULE": "NC/C(F)=C1/COCCN(c2nc3c(cc2F)c(=O)c(C(=O)O)cn3C2CC2)C1", "TESTED_SYSTEM": "pathogenic bacteria", "OPERATOR_SYMBOL": ">", "MIC (µg/mL)": 1}
{"MOLECULE": "COc1c(N2CC(=C(Cl)CO)C2)c(F)cc2c(=O)c(C(=O)O)cn(C3CC3)c12", "TESTED_SYSTEM": "pathogenic bacteria", "OPERATOR_SYMBOL": "≤", "MIC (µg/mL)": 4}
{"MOLECULE": "CNCC(F)=C1CN(c2cc3c(cc2F)c(=O)c(C(=O)O)cn3C2CC2)C1.O=C(O)C(F)(F)F", "TESTED_SYSTEM": "pathogenic bacteria", "OPERATOR_SYMBOL": "=", "MIC (µg/mL)": 8}
{"MOLECULE": "NC/C=C1/CCCN(c2cc3c(cc2F)c(=O)c(C(=O)O)cn3C2CC2)C1", "TESTED_SYSTEM": "pathogenic bacteria", "OPERATOR_SYMBOL": "=", "MIC (µg/mL)": 8}
{"MOLECULE": "CC(CN)=C1CCN(c2nc3c(cc2F)c(=O)c(C(=O)O)cn3C2CC2)CC1O (stereo not shown)", "TESTED_SYSTEM": "pathogenic bacteria", "OPERATOR_SYMBOL": ">", "MIC (µg/mL)": 16}
{"MOLECULE": "O=C(O)c1cn(C2CC2)c2nc(N3CC(=C(Cl)CO)C3)c(F)cc2c1=O", "TESTED_SYSTEM": "pathogenic bacteria", "OPERATOR_SYMBOL": "=", "MIC (µg/mL)": 8}
{"MOLECULE": "CNCC(Cl)=C1CCN(c2c(F)cc3c(=O)c(C(=O)O)cn(C4CC4)c3c2OC)CC1 [Compound 72, Trifluoroacetic Acid Salt]", "TESTED_SYSTEM": "pathogenic bacteria", "OPERATOR_SYMBOL": "=", "MIC (µg/mL)": 0.25}
{"MOLECULE": "C[C@H]1COc2c(N3CCC/C(=C(/F)CN)C3)c(F)cc3c(=O)c(C(=O)O)cn1c23", "TESTED_SYSTEM": "pathogenic bacteria", "OPERATOR_SYMBOL": "=", "MIC (µg/mL)": 4}
{"MOLECULE": "COc1c(N2CCC(=C(Br)CN)CC2)c(F)cc2c(=O)c(C(=O)O)cn(C3CC3)c12", "TESTED_SYSTEM": "pathogenic bacteria", "OPERATOR_SYMBOL": "=", "MIC (µg/mL)": 0.5}
{"MOLECULE": "CC1COc2c(N3CCC(=CCN)C(O)C3)c(F)cc3c(=O)c(C(=O)O)cn1c23 (stereo not shown)", "TESTED_SYSTEM": "pathogenic bacteria", "OPERATOR_SYMBOL": "=", "MIC (µg/mL)": 16}
{"MOLECULE": "C[C@H]1COc2c(N3CCC/C(=C(\\F)CN)C3)c(F)cc3c(=O)c(C(=O)O)cn1c23", "TESTED_SYSTEM": "pathogenic bacteria", "OPERATOR_SYMBOL": "=", "MIC (µg/mL)": 0.25}
{"MOLECULE": "O=C(O)c1cn(C2CC2)c2nc(N3CCC(=CCO)CC3)c(F)cc2c1=O", "TESTED_SYSTEM": "pathogenic bacteria", "OPERATOR_SYMBOL": "=", "MIC (µg/mL)": 4}
{"MOLECULE": "NC/C(Cl)=C1/CCCN(c2nc3c(cc2F)c(=O)c(C(=O)O)cn3C2CC2)CC1", "TESTED_SYSTEM": "pathogenic bacteria", "OPERATOR_SYMBOL": "=", "MIC (µg/mL)": 1}
{"MOLECULE": "COc1c(N2CCC(=C(Cl)CN)CC2)ccc2c(=O)c(C(=O)O)cn(C3CC3)c12", "TESTED_SYSTEM": "pathogenic bacteria", "OPERATOR_SYMBOL": "=", "MIC (µg/mL)": 1}
